assay: MRTlast in Sprague-Dawley rat at 40 mg/kg, po measured for 24 hrs by LC-MS/MS analysis; type: ADME, organism-based; conditions: in vivo
Measure Name: MRT last at 24 h (h)
Express it in h; write the number only.

* [2H]C([2H])([2H])n1cc(-c2ccnc(Nc3cc(NC(=O)C=C)c(N4CC[C@@H](N(C)C)C4)cc3OC)n2)c2ccccc21 | 6.76

Switching to the query record.
Request: Read the entry [2H]C([2H])([2H])n1cc(-c2ccnc(Nc3cc(NC(=O)C=C)c(N4CCC(C)(N)CC4)cc3OC)n2)c2ccccc21 and write its reported MRT last at 24 h.
Result: 9.37
